Experiment: Quantitative high throughput screen for delayed death inhibitors of the malarial parasite plastid, 48 hour incubation (AID 488752); also: nearly all actives have a fitted effect of over 65% in size
Details: Plasmodium falciparum growth; series mostly up to 28.7 µM
Text: NIH Molecular Libraries Probe Production Network [MLPCN] NIH Chemical Genomics Center [NCGC] Assay Provider: David Fidock and Eric Ekland, Columbia University […] We have developed a cell-based assay that measures parasite growth based on the expression of an integrated copy of a firefly luciferase reporter. […] Growth inhibition is detected by a decrease in luciferase activity […]
Inconclusive results are not listed. Calls of active or inactive are those of the source. Calls follow the shape of the dose curve; as a rule, active = well fitted inhibition curve with a large enough effect; inconclusive = small, poorly fitted or top-dose-only effect, or effect the other way; inactive = flat fitted curve, though single readings scatter.
A correct response names exactly one class from y for active, n for inactive

Below are worked cases with known answers.
OC(CN1CCC(Cc2ccc(F)cc2)CC1)c1ccc(Cl)cc1 (stereo not drawn) : y
CC(C)(C)NCC(O)c1ccc(O)c(CO)c1 (stereo not drawn) : n
CC(=O)Oc1ccccc1C(=O)O : n
CC(C[N+](C)(C)C)OC(N)=O (stereo not drawn) : n
Cc1[nH]c(=O)c(C#N)cc1-c1ccc2nccn2c1 : n
c1ccc([C@H]2CN3CCSC3=N2)cc1 : n
O=C1CCc2cc(OCCCCc3nnnn3C3CCCCC3)ccc2N1 : n
CN1CCN(CCCN2c3ccccc3Sc3ccc(C(F)(F)F)cc32)CC1 : y

Name the outcome recorded for CCCC(CCC)C(=O)O in the assay.
n

Quick one: Cc1cn[nH]c1
n

Quick one: Cc1ccccc1C(OCCN(C)C)c1ccccc1 (stereo not drawn)
n

Quick one: NS(=O)(=O)c1cc2c(cc1Cl)NC=NS2(=O)=O
n

Quick one: Cc1[nH]c(=O)c(C#N)cc1-c1ccncc1
n
